Source listed as the supplement of paper PMC10567573.

B1: MYL5 (parent)
chain: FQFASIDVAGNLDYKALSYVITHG

variants of: B1; assay: protein stability index of a GFP-peptide fusion (GPS, HEK-293T) (PSI 1-6); higher = more stable; details: c terminus: a fixed tail appended;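 further: lentivirally expressed fusions sorted by FACS into six bins by GFP to DsRed ratio, PSI derived from sequencing read proportions per bin multiplied by bin number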
Recorded protein stability index values for a group of variants are listed next.
TEST_READOUT: protein stability index

- CHAIN_SEQUENCE: "FQFASIDVAGNLDYKAQSYVITHG"
  MEASUREMENT: 2.03
- CHAIN_SEQUENCE: "FQFASIDVAGNLDYKALSYVITHQ"
  MEASUREMENT: 2.05
- CHAIN_SEQUENCE: "FQFASIDVAGNLDYKNLSYVITHG"
  MEASUREMENT: 1.91
- CHAIN_SEQUENCE: "FQFASIDVAGNLTYKALSYVITHG"
  MEASUREMENT: 2.23
- CHAIN_SEQUENCE: "FQFASIDVAGNLDYKALSYVITHT"
  MEASUREMENT: 3.18
- CHAIN_SEQUENCE: "FQFASIDVAGNLDKKALSYVITHG"
  MEASUREMENT: 2.48
- CHAIN_SEQUENCE: "FQFAYIDVAGNLDYKALSYVITHG"
  MEASUREMENT: 3.17
- CHAIN_SEQUENCE: "FQAASIDVAGNLDYKALSYVITHG"
  MEASUREMENT: 2.17
- CHAIN_SEQUENCE: "FQFASIDVAGNLDYKALSYVITPG"
  MEASUREMENT: 2.56
- CHAIN_SEQUENCE: "FQFASIDVAGNLDYKALSYVINHG"
  MEASUREMENT: 2.52
- CHAIN_SEQUENCE: "FQFASIDVAGNLDYGALSYVITHG"
  MEASUREMENT: 1.5
- CHAIN_SEQUENCE: "FQFASIDVAENLDYKALSYVITHG"
  MEASUREMENT: 3.19
- CHAIN_SEQUENCE: "FQFASIDPAGNLDYKALSYVITHG"
  MEASUREMENT: 2.55
- CHAIN_SEQUENCE: "FKFASIDVAGNLDYKALSYVITHG"
  MEASUREMENT: 2.89
- CHAIN_SEQUENCE: "FQFASIDVAGNLDYKALSTVITHG"
  MEASUREMENT: 1.83
- CHAIN_SEQUENCE: "FQFASIDHAGNLDYKALSYVITHG"
  MEASUREMENT: 3.1
- CHAIN_SEQUENCE: "FQFASIDVAGNLDYKALSYVIAHG"
  MEASUREMENT: 2.03
- CHAIN_SEQUENCE: "FQFASIDVAGNLDYKALSYVKTHG"
  MEASUREMENT: 1.64
- CHAIN_SEQUENCE: "FQFASIDVAGNLDYKALSDVITHG"
  MEASUREMENT: 1.53
- CHAIN_SEQUENCE: "DQFASIDVAGNLDYKALSYVITHG"
  MEASUREMENT: 1.43
- CHAIN_SEQUENCE: "FQFASIDVAGNLDYKALSYRITHG"
  MEASUREMENT: 2.46
- CHAIN_SEQUENCE: "FQFASIDVAGNLDYKALSYVIGHG"
  MEASUREMENT: 3.98
- CHAIN_SEQUENCE: "FQFASIDVAGNLDYKALEYVITHG"
  MEASUREMENT: 1.56
- CHAIN_SEQUENCE: "FQFASIDVAGNLDYKALQYVITHG"
  MEASUREMENT: 1.49
- CHAIN_SEQUENCE: "FQFAIIDVAGNLDYKALSYVITHG"
  MEASUREMENT: 4.16
- CHAIN_SEQUENCE: "FQFASIDVAGNLDNKALSYVITHG"
  MEASUREMENT: 2.27
- CHAIN_SEQUENCE: "FQFASIDVAGNPDYKALSYVITHG"
  MEASUREMENT: 2.88
- CHAIN_SEQUENCE: "FQFESIDVAGNLDYKALSYVITHG"
  MEASUREMENT: 2.51
- CHAIN_SEQUENCE: "FQFASIYVAGNLDYKALSYVITHG"
  MEASUREMENT: 3.46
- CHAIN_SEQUENCE: "FQFASIDVAGNLDYKALSPVITHG"
  MEASUREMENT: 1.43
